test system: c-Src; assay: phosphorylation enrichment, bacterial display (enrichment ratio); higher = better substrate or ligand; peptides without Tyr show the background;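 further: 11-residue human phosphosite peptides and single-mutation variants displayed on the E. coli surface, counted by deep sequencing, each peptide's frequency after selection divided by its frequency in the unselected input library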;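 further: frequency after pTyr selection over input frequency; kinase dosed for 20-30% of maximal phosphorylation in three min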
Classes are defined on phosphorylation enrichment with ranges lo = under 0.4, med = from 0.4 up to 0.5, hi = 0.5 and over

Please classify: RHPFFYAPELL [ALB_Y174_YF] hi

Please classify: HRAVEYLLMGI [RAD23A_Y197_T200M] med

Please classify: ISKKIYDPIHD [CTNNA3_Y614_T616P] hi

Please classify: TLSGIYQFNIA [FOXL2_Y81_I84N_YF] hi

Please classify: EREFKYDAHNF [OAT_Y50_G51D_YF] med

Please classify: QMVGMYASSSM [AVPR2_Y124_Y128S] hi

Please classify: ANYTEYVATRW [CDKL5_Y171] hi

Please classify: EDEGLYTVRVP [MYOM3_Y343_M344T] hi

Please classify: IDGLEYLHSQS [STK11_Y166_G171S] lo

Please classify: QDGFSYLSRQM [LDLR_Y847_P848L_YF] med

Please classify: QLQVFYATLDQ [MIPEP_Y579] hi

Please classify: APSHAYHGGVL [ANO1_Y981] med

Please classify: SCRENYSFSEE [LEMD3_Y258_D260Y_YF] hi

Please classify: VIGRMYDYHVL [RPF2_Y109] hi

Please classify: GCRSKYVGLWR [KCNQ1_Y184_G189R] lo

Please classify: LLPNAYIFVVQ [L1CAM_Y418_A415P_YF] med

Please classify: TPRNTYKMTSL [MKI67_Y849] med

Please classify: SVTWTYSPALN [TP53_Y126_C124W] lo

Please classify: ESAAIYNPVIY [RHO_Y301_K296E] hi

Please classify: ANYTEYVATSW [CDKL5_Y171_R175S] hi

Please classify: TKQLTYEEQDL [PIK3C3_Y310] hi

Please classify: TTKAKYKTPIF [PLD2_Y573_T577I_YF] med

Please classify: STSKTYVISQT [RBBP6_Y87_R91Q] med

Please classify: VLTSKHRGGGG [HBA1_Y141_Y141H] lo

Please classify: `GYITSYREEEQ` med

Please classify: SGKSEYLLPVA [MYLK_Y611_R607G] med

Please classify: KGEDFYFVTCH [FHL1_Y149_C150Y_YF] med

Please classify: SIKDKYVTVLF [KCNH2_Y611_A614V_YF] lo

Please classify: SSREGYVRHHN [FAM83B_Y433_S435R] lo

Please classify: SKHHLYSDLQT [PTCHD1_Y84_R82H] hi

Please classify: PSAELYSNALP [PDGFRB_Y716] hi

Please classify: RTVPLYESLRK [DDB1_Y718_P721L] hi

Please classify: FSQQTYYRVSN [ABCD1_Y180] hi

Please classify: IVLEKYKLLPE [DHFR_Y157_D153V] lo

Please classify: ARVANYQRDGP [CAT_Y386] hi

Please classify: `ACDALYPPGPP` med

Please classify: IYGASYVPFAA [RBM47_Y541] hi

Please classify: PFSEPYADFGG [APBA1_Y187_YF] hi

Please classify: EFAAGYNVKFD [GPX4_Y123] med

Please classify: CSTIHYNYMCN [TP53_Y234_T230S] med

Please classify: IRTGIYHGGEP [PIK3CA_Y361_V356I] hi

Please classify: GVTLLCFGRFN [ADGRD1_Y85_Y85C_YF] lo

Please classify: FVSIVYNDSGE [TSC2_Y1650] hi

Please classify: NYAKMYCNPDA [KNL1_Y489] hi

Please classify: ARVDTYCRHNY [HLA-DRB1_Y107_A103R] med

Please classify: PVQAAYQKVVA [HBB_Y131] med

Please classify: ALADKYHGGGG [HBB_Y146_H144D] lo

Please classify: YKIYLYTLNDN [FN1_Y1975] med

Please classify: NSRYTYKLEVK [USH2A_Y3747] med

Please classify: TKVTFYKQPMF [GBA_Y451_D448V] lo

Please classify: STEPQYQPGEN [SRC_Y530] lo
